Reference source: patent US20210388087A1

- Target Or Test System: T1, Human CD137 ECD (human)
- T1 construct: also called 4-1BB
- T1 sequence (chain, as listed by the source limits assumed): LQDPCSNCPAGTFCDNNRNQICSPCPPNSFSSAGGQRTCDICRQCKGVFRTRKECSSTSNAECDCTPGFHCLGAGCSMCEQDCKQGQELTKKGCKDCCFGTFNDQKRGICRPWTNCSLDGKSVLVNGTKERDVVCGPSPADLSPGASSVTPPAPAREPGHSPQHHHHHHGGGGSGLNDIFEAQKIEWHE
- Test Description: SPR, vs parent H183/L072
Below is a list of entries, each paired with its recorded fold change of affinity value.

Reference set, count: 4
{"Binder": "dBBDu183H Y94T / dBBDu072L (antibody, name in Kabat numbering, V domains shown, as m1, one VH change) VH: QVQLVESGGGLVQPGRSLRLSCAASGFTFSNAWMHWVRQAPGKGLEWVAQIKDKGNAYAAYYAPSVKGRFTISRDDSKNSIYLQMNSLKTEDTAVYYCHTVHYASASTVLPAFGVDAWGQGTTVTVSS VL: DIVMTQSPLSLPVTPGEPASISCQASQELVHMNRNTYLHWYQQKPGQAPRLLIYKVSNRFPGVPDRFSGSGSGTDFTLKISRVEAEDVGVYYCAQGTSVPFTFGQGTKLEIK", "fold change of affinity": "0.6 fold"}
{"Binder": "dBBDu183H A100fH / dBBDu072L (antibody, name in Kabat numbering, V domains shown, as m1, one VH change) VH: QVQLVESGGGLVQPGRSLRLSCAASGFTFSNAWMHWVRQAPGKGLEWVAQIKDKGNAYAAYYAPSVKGRFTISRDDSKNSIYLQMNSLKTEDTAVYYCHYVHYASASTVLPHFGVDAWGQGTTVTVSS VL: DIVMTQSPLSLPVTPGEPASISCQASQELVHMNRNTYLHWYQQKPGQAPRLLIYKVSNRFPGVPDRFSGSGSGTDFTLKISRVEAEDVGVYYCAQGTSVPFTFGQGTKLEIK", "fold change of affinity": "1 fold"}
{"Binder": "dBBDu183H Y94F / dBBDu072L (antibody, name in Kabat numbering, V domains shown, as m1, one VH change) VH: QVQLVESGGGLVQPGRSLRLSCAASGFTFSNAWMHWVRQAPGKGLEWVAQIKDKGNAYAAYYAPSVKGRFTISRDDSKNSIYLQMNSLKTEDTAVYYCHFVHYASASTVLPAFGVDAWGQGTTVTVSS VL: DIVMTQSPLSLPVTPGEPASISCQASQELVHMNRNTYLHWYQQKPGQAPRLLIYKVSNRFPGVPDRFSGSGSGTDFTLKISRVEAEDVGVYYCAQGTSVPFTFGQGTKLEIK", "fold change of affinity": "1.8 fold"}
{"Binder": "dBBDu183H V63W / dBBDu072L (antibody, name in Kabat numbering, V domains shown, as m1, one VH change) VH: QVQLVESGGGLVQPGRSLRLSCAASGFTFSNAWMHWVRQAPGKGLEWVAQIKDKGNAYAAYYAPSWKGRFTISRDDSKNSIYLQMNSLKTEDTAVYYCHYVHYASASTVLPAFGVDAWGQGTTVTVSS VL: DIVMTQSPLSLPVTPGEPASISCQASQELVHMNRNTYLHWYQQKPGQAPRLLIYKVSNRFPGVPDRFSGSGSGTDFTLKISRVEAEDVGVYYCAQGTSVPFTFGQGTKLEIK", "fold change of affinity": "1 fold"}

Then this binder:
**Q:** Look up fold change of affinity of dBBDu183H L100dS / dBBDu072L (antibody, name in Kabat numbering, V domains shown, as m1, one VH change) VH: QVQLVESGGGLVQPGRSLRLSCAASGFTFSNAWMHWVRQAPGKGLEWVAQIKDKGNAYAAYYAPSVKGRFTISRDDSKNSIYLQMNSLKTEDTAVYYCHYVHYASASTVSPAFGVDAWGQGTTVTVSS VL: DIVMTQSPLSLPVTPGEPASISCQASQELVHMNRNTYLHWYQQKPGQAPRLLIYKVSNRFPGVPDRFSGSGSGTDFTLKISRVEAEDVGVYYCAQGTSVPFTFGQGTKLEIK and report it.
**A:** 0.5 fold
